- test.summary: in vitro
- condition.set: rat, liver microsomes
observed.property: half-life (min)

{"columns": ["smiles.representation", "readout.value"],
 "data": [
  ["CCn1nnc2c(N3CCOCC3)nc(-c3ccc(NC(=O)Nc4ccc(C(=O)OC)cc4)cc3)nc21", 15],
  ["CCn1nnc2c(N3CCOCC3)nc(-c3ccc(NC(=O)Nc4cccs4)cc3)nc21", 10],
  ["CC(C)n1nnc2c(N3CCOCC3)nc(-c3ccc(NC(=O)Nc4ccc(N(C)C)cc4)cc3)nc21", 7]
]}

[P] O=C(Nc1ccc(-c2nc(N3CCOCC3)c3nnn(C4CC4)c3n2)cc1)Nc1cccnc1
[Q] CCn1nnc2c(N3CCOCC3)nc(-c3ccc(NC(=O)Nc4ccc(C(=O)N5CCN(C)CC5)cc4)cc3)nc21
Field: lower half-life | Options: P / Q Please identify the chosen entry by its label.
Q

[I] CCn1nnc2c(N3CCOCC3)nc(-c3ccc(NC(=O)Nc4ccc(C(=O)NCCCN(C)C)cc4)cc3)nc21
[II] O=C(Nc1ccc(-c2nc(N3CCOCC3)c3nnn(C4CC4)c3n2)cc1)Nc1cccs1
Field: lower half-life | Options: I / II Please identify the chosen entry by its label.
II
(II: 15 min, I: 26 min)
